FYI, the data here is from PubChem BioAssay.

Tested on: Fibrinogen (Alexa647-labelled)
experiment summary: Alexa647-fibrinogen binding to printed small molecules – biochemical, small-molecule microarray, 635/667 nm fluorescence, artefact control for SMM control-protein annotation, profiling panel (AID 1131);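 further: z-score merges 667 nm fluorescence with per-spot signal-to-noise over triplicate slides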
measurement parameters: fibrinogen-A647 binding fluorescence, higher = more signal
So I've got a bunch of compounds here, and I need their composite z-score values.
One number for each entry.

Example entries begin here.
{"compound": "O=[N+]([O-])c1ccc(C[n+]2ccc(CCCO)cc2)o1", "composite z-score": 0.752}
{"compound": "CC(C)(C)OC(=O)CC[C@@]1(C(=O)NCC(O)CO)N=C(c2ccc(OCCCO)cc2)O[C@@H]1c1ccccc1 (stereo partly specified)", "composite z-score": 0.681}
{"compound": "COc1ccc([Si](C)(C)[C@H]2[C@H](CC(=O)N3Cc4ccccc4C[C@H]3CO)O[C@@]3(C(=O)N(Cc4cccc(I)c4)c4ccccc43)[C@@H]2C)cc1", "composite z-score": 0.321}
{"compound": "C[C@H]1C2[C@H](Cc3ccccc3)NC(=O)[C@]23C(=O)N[C@H](Cc2ccccc2)C(=O)N[C@H](Cc2ccccc2)C(=O)NC/C=C/CCC/C=C/C3[C@@H]2O[C@]12C (stereo partly specified)", "composite z-score": 0.304}
{"compound": "Cc1ccc(S[C@]2(C(=O)NCc3ccccc3)CC(=O)N(Cc3cc(C(F)(F)F)cc(C(F)(F)F)c3)[C@@H]2c2ccc(CO)cc2)cc1", "composite z-score": -1.25}

Lab note: each compound below needs its composite z-score filled in.
1. CS(=O)(=O)CCOC(=O)C1=CC(c2ccc(CO)cc2)=CC(c2cccs2)N(Cc2cccc(OC(F)(F)F)c2)C=C1C(=O)OCCS(C)(=O)=O (stereo unspecified)
2. CCN(CC)c1ccc(N2CC=CC34O[C@@H]5C=CCOC(=O)[C@@H]5[C@H]3C(=O)N(CCCCCO)[C@@H]4C2=O)cc1 (stereo partly specified)
3. C=CCN1C(=O)[C@]2(COC(c3ccc(OCCCO)cc3)=N2)Cc2ccccc21
4. Cc1ccc(N2C(=O)c3ccccc3[C@@H](C(=O)NCC(C)C)[C@@H]2c2ccc(CO)cc2)nc1
5. CCCCCCCCCCC(O)C1C=CC2C(=O)N(c3ccccc3)C(=O)C2N1Nc1ccc([N+](=O)[O-])cc1 (stereo unspecified)

A.
1: 1.01; 2: -1.59; 3: 0.885; 4: -0.877; 5: 0.992

Lab note: each compound below needs its composite z-score filled in.
1. CC(C)(C)OC(=O)CC[C@@]1(C(=O)N2CCOCC2)N=C(c2ccc(OCCCO)cc2)O[C@@H]1c1ccccc1N=[N+]=[N-]
2. C=CC[C@@]1(C(=O)NCc2ccccc2)N=C(c2ccc(OCCCO)cc2)O[C@@H]1c1ccccc1CN=[N+]=[N-]
3. COC(=O)c1c(CC[C@@H](CO)NC(=O)Nc2ncn[nH]2)oc(C(=O)Cc2ccccc2)c1C(=O)OC
4. CN1C(=O)C2C=CC(C(O)C=Cc3ccc([N+](=O)[O-])cc3)N(N3CCCCC3)C2C1=O (stereo unspecified)
5. COCCCNC(=O)[C@@]1(Cc2ccccc2I)c2ccccc2C(=O)N(Cc2ccccc2)[C@H]1c1ccc(CO)cc1
6. Cn1c2c(c3ccccc31)C(=O)C1NC2C=CC1(C)C(=O)OCc1ccccc1 (stereo unspecified)

A.
1.01
0.995
0.915
0.966
-1.03
0.351
